The reported numbers originate from paper PMC5540273.

Tested on: RSK4(Kin.Dom.1-N-terminal);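 further: KINOMEscan kinase panel screen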
Construct: gene RPS6KA6
Details: concentration: 1 μM, replicates: in singlicate; n = 1
Experimental Readout: %Inh (%)

>>> readout_value("COc1cccc(-c2nc(-c3ccccc3)[nH]c2-c2ccncc2)c1")
0
>>> readout_value("O=C(Nc1n[nH]c2nc(-c3ccccc3)ccc12)C1CC1")
30
>>> readout_value("CCNc1nccc(-c2c(-c3ccc(F)cc3)ncn2C2CCN(C)CC2)n1")
13
>>> readout_value("Cc1ccccc1CC(=O)N1CCc2cc(-c3cn(C)c4ncnc(N)c34)ccc21")
28
>>> readout_value("CSc1ccc(NC2=C(c3ccc(Cl)cc3)C(=O)NC2=O)cc1")
5
>>> readout_value("O=C1NC(=O)C(c2ccccc2Cl)=C1Nc1cccc(Cl)c1")
0
>>> readout_value("Cl.O=C(Nc1ccc(Oc2ccc3[nH]c(NC(=O)c4ccco4)nc3c2)cc1)Nc1cc(C(F)(F)F)ccc1F")
0
>>> readout_value("COC(=O)Nc1nc2cc(Oc3ccc(NC(=O)Nc4cccc(SC)c4)cc3)ccc2[nH]1.Cl")
0
>>> readout_value("CNc1nccc(-c2ccc3c(N)n[nH]c3c2)n1")
59
>>> readout_value("N#Cc1cnc2cc(-c3cnc(CNCCN4CCOCC4)s3)ccc2c1Nc1ccc(Oc2ccccc2)cc1")
11
>>> readout_value("N#CC1(c2cccc(C(=O)Nc3cccc(Oc4ccc5nc(NC(=O)C6CC6)sc5n4)c3)c2)CC1")
11
>>> readout_value("CN(c1ccc(NC(=O)Nc2cccc(Cl)c2)cc1)c1ccnc(N)n1.Cl")
0
>>> readout_value("Cc1ccc(O)cc1Nc1ccnc2ccc(C(C)(C)C)cc12")
31
>>> readout_value("COc1cccc(CC(=O)N2CCc3cc(-c4cn(C)c5ncnc(N)c45)ccc32)c1")
0
>>> readout_value("CN(C)c1ncnc2nc[nH]c12")
28
>>> readout_value("COc1ccc(NC(=O)c2ccoc2)cc1-c1ccc(C(=O)NCC2CC2)cc1")
8
>>> readout_value("Cc1ccc(-c2ccc3occ(-c4ccc(S(C)=O)cc4)c3c2)nn1 (stereo not shown)")
0
>>> readout_value("CN1CCN(Cc2ccc(NC(=O)Nc3ccc(N(C)c4ccnc(Nc5ccc(CS(C)(=O)=O)cc5)n4)cc3)cc2)CC1.Cl")
6
>>> readout_value("Cc1cc(-c2ccnc(Nc3cccc(C#N)c3)n2)cc(C)c1O")
0
